Molecular target: full-length beta-Catenin (Uniprot ID P35222) (Homo sapiens, UniProt P35222)
Construct: 10 nM full-length beta-Catenin (Uniprot ID P35222)
Sequence (P35222 whole entry): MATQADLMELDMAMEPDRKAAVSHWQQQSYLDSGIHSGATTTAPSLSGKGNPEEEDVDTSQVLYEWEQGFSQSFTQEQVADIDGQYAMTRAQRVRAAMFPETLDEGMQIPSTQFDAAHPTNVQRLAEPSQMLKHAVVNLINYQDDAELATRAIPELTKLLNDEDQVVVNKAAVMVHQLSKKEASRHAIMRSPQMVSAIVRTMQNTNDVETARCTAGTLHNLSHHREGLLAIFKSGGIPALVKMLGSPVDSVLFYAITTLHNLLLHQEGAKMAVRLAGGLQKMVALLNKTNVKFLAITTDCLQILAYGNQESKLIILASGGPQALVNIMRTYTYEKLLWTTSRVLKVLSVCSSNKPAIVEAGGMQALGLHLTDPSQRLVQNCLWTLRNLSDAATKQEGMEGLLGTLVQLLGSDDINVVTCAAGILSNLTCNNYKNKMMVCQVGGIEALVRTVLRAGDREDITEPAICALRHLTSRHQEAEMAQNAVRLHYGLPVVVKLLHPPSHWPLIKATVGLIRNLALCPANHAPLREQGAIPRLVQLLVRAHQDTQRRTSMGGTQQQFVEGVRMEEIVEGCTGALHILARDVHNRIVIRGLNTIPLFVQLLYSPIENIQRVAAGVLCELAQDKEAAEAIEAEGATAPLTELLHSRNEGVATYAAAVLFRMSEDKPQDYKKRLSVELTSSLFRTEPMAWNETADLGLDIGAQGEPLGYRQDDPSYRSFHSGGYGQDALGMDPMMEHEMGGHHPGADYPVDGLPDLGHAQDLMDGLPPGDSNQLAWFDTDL
Assay: Fluorescence polarization IC50 (beta-catenin / 5FAM-TCF4 10-53 competition)
Type: binding
Conditions: fluorescence polarization; read-out: beta-Catenin FP IC50
Listing of recorded IC50 by entry.
ASSAY_ENDPOINT: IC50 (µM)

compound="CC(=O)N1CCC[C@]12CC=CCCCC1(CCCC=CCCCOC(=O)N3CC[C@@](C(=O)N[C@@H](Cc4ccsc4)C(=O)N[C@@H](Cc4csc5ccccc45)C(=O)N[C@@H](CCC(N)=O)C(N)=O)(C3)NC(=O)[C@H](CC(C)C)NC(=O)[C@H](Cc3ccccc3)NC(=O)[C@H](C)NC(=O)[C@H](C)NC(=O)[C@H](CCC(=O)OCCSSc3ccccn3)NC(=O)[C@H](CC(=O)O)NC1=O)NC(=O)[C@H](CC(C)(C)C)NC(=O)[C@H](CC(=O)O)NC2=O (some centres unmarked)" assay_endpoint=IC50 measured_number=0.264
compound="CC(C)C[C@H](NC(=O)[C@]12CCN(C1)C(=O)OCCCCCCCCC1(CCCCCCc3ccccc3C(=O)N3CCC[C@@]3(C)C(=O)N[C@@H](CC(=O)O)C(=O)N1)C(=O)N[C@@H](C)C(=O)N[C@@H](CC(=O)O)C(=O)N[C@@H](CC(=O)O)C(=O)N[C@@H](C)C(=O)N[C@@H](C)C(=O)N[C@@H](Cc1ccccc1)C(=O)N2)C(=O)N[C@@H](Cc1ccsc1)C(=O)N[C@@H](Cc1csc2ccccc12)C(=O)N[C@@H](CCC(N)=O)C(N)=O (some centres unmarked)" assay_endpoint=IC50 measured_number=0.734
